# growth inhibition values compiled below
# assay-notes: NCI Yeast Anticancer Drug Screen. Data for the sgs1 mgt1 strain (AID 161);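 also: 0% = growth of cultures given vehicle only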
# assay-conditions: S. cerevisiae sgs1 mgt1 strain, at 50.0 µM, stronger effect = higher value
# Method: Growth inhibition of yeast strains with defined genetic alterations is measured as a screen for potential anti-cancer activity. Selected strains with alterations in DNA damage repair or cell cycle control were exposed to compounds and growth inhibition was measured relative to vehicle treated controls. The strain used in this assay is sgs1 mgt1
About 79,000 compounds went through this panel and 15% of them were active in at least one assay; those are over-represented in the sample as a whole.
measured-attribute: growth inhibition (%)

# compound, reading-unit, value-observed
data = [
    ("Cc1cc(C)c(F)c(C)c1N", "%", -22),
    ("CN1CN(C)C(c2ccncc2)=C1c1ccncc1", "%", -29.9),
    ("O=P(Nc1ccc(Cl)cc1)(Nc1ccc(Cl)cc1)N1CCCCC1", "%", 5.8),
    ("O=C(CN1CCCC1)Nc1ccc2sc3ccccc3c(=O)c2n1", "%", -5.75),
    ("CC(C)N=C(c1ccccc1)N(O)c1ccccc1", "%", -0.75),
    ("O=P(NC1CCCCC1)(NC1CCCCC1)c1ccccc1", "%", -5.1),
    ("O=C(OC(CN1CCCCC1)CN1CCCc2ccccc21)C(O)C(O)C(O)(CO)C(=O)OC(CN1CCCCC1)CN1CCCc2ccccc21 (stereo not given)", "%", 43.8),
    ("CCN(CC)c1ccc(C)cc1Cl", "%", -12.2),
    ("O=C1OC(C2OC(=O)C(=O)C2C(=O)c2ccccc2Cl)C(C(=O)c2ccccc2Cl)C1=O (stereo not given)", "%", 49.5),
    ("Oc1ccc(C2=NNC(c3ccc(O)cc3)=NN2)cc1", "%", 17),
    ("CC(C)(N)C(=O)O", "%", 24.6),
    ("O=C1C=C2SCCN2C(=O)C1", "%", -9.15),
    ("O=C(O)c1cc(Cl)ccc1-c1ccc(Cl)cc1C(=O)Nc1ccc2c(c1)Cc1cc(Cl)cc(Cl)c1-2", "%", 97.8),
    ("Cc1ccc(C(=O)Nc2ccc(S(=O)(=O)O)c3cc(S(=O)(=O)O)cc(S(=O)(=O)O)c23)cc1N", "%", -54.5),
    ("O=C1CN(Cc2ccccc2)CCO1", "%", -3.55),
]
